Recorded values, source paper PMC5478271.

# Target: human cytoplasmic dynein 1 (GFP-dynein 1, AA 1320–4646) (Homo sapiens, UniProt Q14204)
# Construct: (AA 1320–4646 with additional valine [at position 4647], uniprot Q14204); protein A tag (followed by TEV-cleavable linker) (N, cleaved yes); made in house; host or cells: insect cells (baculovirus)
# Sequence (Q14204 with tags, fused parts or gaps): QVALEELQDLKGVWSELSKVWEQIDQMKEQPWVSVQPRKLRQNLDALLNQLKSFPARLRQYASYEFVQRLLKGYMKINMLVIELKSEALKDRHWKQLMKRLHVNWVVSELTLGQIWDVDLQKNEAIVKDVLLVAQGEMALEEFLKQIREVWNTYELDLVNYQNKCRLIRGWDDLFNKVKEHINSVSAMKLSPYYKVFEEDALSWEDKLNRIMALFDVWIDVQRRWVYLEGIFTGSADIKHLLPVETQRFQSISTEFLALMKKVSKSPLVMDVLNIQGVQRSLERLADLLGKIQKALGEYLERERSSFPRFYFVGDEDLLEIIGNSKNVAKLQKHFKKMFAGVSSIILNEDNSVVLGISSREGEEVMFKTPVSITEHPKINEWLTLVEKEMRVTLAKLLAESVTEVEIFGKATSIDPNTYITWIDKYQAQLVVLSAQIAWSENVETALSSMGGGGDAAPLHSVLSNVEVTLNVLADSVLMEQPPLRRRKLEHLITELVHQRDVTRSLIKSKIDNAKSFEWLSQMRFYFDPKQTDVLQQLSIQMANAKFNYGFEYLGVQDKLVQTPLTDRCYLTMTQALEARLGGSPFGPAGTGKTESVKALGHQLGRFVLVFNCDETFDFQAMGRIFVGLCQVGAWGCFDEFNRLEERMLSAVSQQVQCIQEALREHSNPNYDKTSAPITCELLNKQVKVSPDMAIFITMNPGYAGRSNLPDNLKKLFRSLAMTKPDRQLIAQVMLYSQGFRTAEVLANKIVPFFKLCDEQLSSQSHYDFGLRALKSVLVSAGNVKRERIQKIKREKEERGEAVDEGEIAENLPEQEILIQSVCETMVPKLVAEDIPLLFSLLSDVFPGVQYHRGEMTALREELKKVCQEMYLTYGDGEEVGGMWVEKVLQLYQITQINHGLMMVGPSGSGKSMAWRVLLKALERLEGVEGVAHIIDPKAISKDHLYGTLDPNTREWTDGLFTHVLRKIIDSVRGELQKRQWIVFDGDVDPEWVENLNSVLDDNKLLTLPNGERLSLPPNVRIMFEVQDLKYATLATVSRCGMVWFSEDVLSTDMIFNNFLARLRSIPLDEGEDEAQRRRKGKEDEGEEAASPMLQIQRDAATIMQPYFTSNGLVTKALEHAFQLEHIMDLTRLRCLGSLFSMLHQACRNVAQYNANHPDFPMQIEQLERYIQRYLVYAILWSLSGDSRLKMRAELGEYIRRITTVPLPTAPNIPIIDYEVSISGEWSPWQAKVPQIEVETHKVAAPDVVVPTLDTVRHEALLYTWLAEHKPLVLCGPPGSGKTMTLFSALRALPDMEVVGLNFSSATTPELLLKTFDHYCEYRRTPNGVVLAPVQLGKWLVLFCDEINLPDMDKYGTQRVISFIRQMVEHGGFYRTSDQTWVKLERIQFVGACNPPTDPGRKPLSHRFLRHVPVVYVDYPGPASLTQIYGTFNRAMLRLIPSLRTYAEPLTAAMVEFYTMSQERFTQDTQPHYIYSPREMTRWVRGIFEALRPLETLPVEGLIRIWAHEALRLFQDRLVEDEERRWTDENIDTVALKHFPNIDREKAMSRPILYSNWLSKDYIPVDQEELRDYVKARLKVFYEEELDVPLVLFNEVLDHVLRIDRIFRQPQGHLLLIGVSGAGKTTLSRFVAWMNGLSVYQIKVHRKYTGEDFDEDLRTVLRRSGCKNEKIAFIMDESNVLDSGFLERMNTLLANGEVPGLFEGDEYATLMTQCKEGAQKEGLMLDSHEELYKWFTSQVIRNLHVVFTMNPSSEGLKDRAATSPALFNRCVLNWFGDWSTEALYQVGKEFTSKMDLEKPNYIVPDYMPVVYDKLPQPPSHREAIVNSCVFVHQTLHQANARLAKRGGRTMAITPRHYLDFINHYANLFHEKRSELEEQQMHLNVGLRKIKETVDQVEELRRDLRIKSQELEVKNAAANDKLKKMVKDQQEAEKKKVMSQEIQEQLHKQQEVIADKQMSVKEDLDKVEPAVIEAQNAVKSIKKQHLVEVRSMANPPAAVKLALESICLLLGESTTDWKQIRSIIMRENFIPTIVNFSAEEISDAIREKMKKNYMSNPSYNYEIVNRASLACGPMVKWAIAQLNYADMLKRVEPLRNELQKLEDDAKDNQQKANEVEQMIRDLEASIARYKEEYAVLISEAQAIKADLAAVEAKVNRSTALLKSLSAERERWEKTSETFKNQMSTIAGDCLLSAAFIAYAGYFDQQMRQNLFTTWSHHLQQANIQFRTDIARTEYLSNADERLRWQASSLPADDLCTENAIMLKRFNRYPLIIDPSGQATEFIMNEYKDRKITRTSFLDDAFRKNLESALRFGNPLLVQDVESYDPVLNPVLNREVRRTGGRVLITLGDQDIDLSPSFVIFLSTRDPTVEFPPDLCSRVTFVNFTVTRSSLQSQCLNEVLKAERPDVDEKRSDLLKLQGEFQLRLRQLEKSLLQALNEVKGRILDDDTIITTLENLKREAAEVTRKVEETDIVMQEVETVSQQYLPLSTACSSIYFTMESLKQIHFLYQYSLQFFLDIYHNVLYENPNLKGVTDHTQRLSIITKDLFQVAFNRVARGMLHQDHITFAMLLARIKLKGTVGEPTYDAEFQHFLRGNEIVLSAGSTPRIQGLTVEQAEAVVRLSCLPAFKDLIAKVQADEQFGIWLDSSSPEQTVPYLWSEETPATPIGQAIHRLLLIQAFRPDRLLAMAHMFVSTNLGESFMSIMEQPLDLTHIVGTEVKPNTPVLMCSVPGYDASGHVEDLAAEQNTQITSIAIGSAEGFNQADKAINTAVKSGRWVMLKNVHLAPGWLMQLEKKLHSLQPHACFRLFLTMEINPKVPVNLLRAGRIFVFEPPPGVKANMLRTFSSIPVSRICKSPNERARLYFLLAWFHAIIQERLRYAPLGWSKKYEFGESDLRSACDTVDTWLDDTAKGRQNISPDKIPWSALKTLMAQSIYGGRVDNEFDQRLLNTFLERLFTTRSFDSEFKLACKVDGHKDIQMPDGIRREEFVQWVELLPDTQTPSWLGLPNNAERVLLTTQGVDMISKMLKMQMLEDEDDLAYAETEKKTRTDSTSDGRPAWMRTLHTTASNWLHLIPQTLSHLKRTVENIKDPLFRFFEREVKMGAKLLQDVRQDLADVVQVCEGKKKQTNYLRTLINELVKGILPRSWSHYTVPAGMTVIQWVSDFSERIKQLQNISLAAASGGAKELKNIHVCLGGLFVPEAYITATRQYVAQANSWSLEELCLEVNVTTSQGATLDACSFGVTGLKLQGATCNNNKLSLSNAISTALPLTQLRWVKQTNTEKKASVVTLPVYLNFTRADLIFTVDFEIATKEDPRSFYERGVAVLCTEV
# Assay info: Microtubule gliding (motility) assay with GFP-dynein 1
# Type: biochemical
# Condition info: 1 mM ATP, 0.5 mg/mL casein; read-out: IC50, inhibition of GFP-dynein 1-driven motility in the presence of 0.5 mg/ml casein
Quantity kind: IC50 (µM)
The answer is to be given in µM; state only the numeric part.

Tell me IC50 of N#Cc1c(C2(c3ccc(Cl)cc3)CC2)nn2c1[nH]c(=O)c1cc(I)ccc12 [Compound 8] when tested on human cytoplasmic dynein 1 (GFP-dynein 1, AA 1320–4646) (Homo sapiens, UniProt Q14204). 10.5

###

As shown below, each of these compounds has a reported pIC50 value.
# Tested on: Gli-driven luciferase reporter in NIH-3T3 (Shh-Light2) cells
# Assay info: Hedgehog pathway activity, Gli-driven luciferase reporter (Shh-Light2 cells, SAG-stimulated)
# Type: cell-based
# Condition info: Shh Light2; SAG 500 nM, low serum (0.5% BCS), 28–32 hr; read-out: IC50, inhibition of Gli-driven luciferase reporter expression
Notebook: values listed as pIC50 are -log10 of the concentration (mol/L).

Check the records and state pIC50 for N#C/C(C(=O)c1ccc(Cl)cc1Cl)=C1\NC(=O)c2ccc(Cl)cc2N1 [ciliobrevin D, reference compound] 4.81

Check the records and state pIC50 for N#Cc1c(C2(c3ccc(Cl)cc3)CC2)nn2c1[nH]c(=O)c1cc(I)ccc12 5.72
